The values you see were collected from PubChem BioAssay.

Exercise: state measured composite z-score for each of the compounds provided.
study.system: Calmodulin-1 (Homo sapiens) (UniProt P0DP23)
run.description: CALM1 binders on microarrays, EGTA buffer, profiling panel, biochemical, small-molecule microarray, Cy5-labelled CALM1 (AID 1111);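 note: labelled calmodulin applied in Tris saline Tween buffer holding calcium plus EGTA and DTT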
applied.conditions: Cy5-CALM1 binding fluorescence, higher = more signal
One number for each entry.

N#Cc1ccc(NN2C(C(O)C3CCCCC3)C=CC3C(=O)N(c4ccccc4)C(=O)C32)cc1 (centres undefined) :: 1.82
COc1ccc(C#Cc2ccc3c(c2)[C@]2(C(=O)N3)[C@H](C(=O)NC[C@H](O)c3ccccc3)[C@H]3C(=O)O[C@H](c4ccccc4)[C@H](c4ccccc4)N3[C@@H]2c2ccccc2OCCO)cc1 :: 1.08
C[C@H]1NC(=O)[C@H](Cc2ccccc2)NC(=O)[C@@]23C(=O)N[C@@H](Cc4ccccc4)C2[C@H](C)[C@@]2(C)O[C@H]2C3/C=C/C/C=C\CNC1=O (some centres undefined) :: -0.638
COC(=O)c1ccc(C(O)C2C=CC3C(=O)N(c4ccccc4)C(=O)C3N2Nc2ccc(C#N)cc2)o1 (centres undefined) :: -0.118

Record composite z-score per entry; entries follow.
1. COC(=O)[C@@]1(Cc2ccccc2)[C@H]2c3cc(C(=O)N(C)C)n(Cc4cc(C)n(C)n4)c3C[C@H]2CN1C(=O)c1ccccc1
2. COC(=O)[C@@]1(Cc2ccc(F)cc2)[C@H]2c3cc(C(=O)N(C)C)n(CCc4ccccn4)c3C[C@H]2CN1C(=O)c1ccccc1
3. COc1ccc(CCNC(=O)[C@@]2(Sc3ccc(C)cc3)CC(=O)N(Cc3ccccc3Cl)[C@@H]2c2ccc(CO)cc2I)cc1
4. COC(=O)c1ccc(C23CC2(C(NP(=O)(c2ccccc2)c2ccccc2)c2ccccc2)C3)cc1 (centres undefined)
5. CC(C)Cc1ccc(CN2CC[C@@H](NS(=O)(=O)c3ccccc3)C2)cc1
6. CCCNC(=O)[C@@H]1c2ccccc2C(=O)N(Cc2ccccc2)[C@H]1c1ccc(CO)cc1
7. [N-]=[N+]=Nc1ccccc1[C@@H]1OC(c2ccc(OCCCO)cc2)=N[C@]1(CCS(=O)(=O)c1ccccc1)C(=O)N1CCOCC1

Result:
1. 1.8
2. -0.012
3. -0.252
4. 2.35
5. -0.856
6. -0.0977
7. 1.74

Record composite z-score per entry; entries follow.
1. [N-]=[N+]=NCc1ccccc1[C@H]1OC(c2ccc(OCCCO)cc2)=N[C@@]1(CCS(=O)(=O)c1ccccc1)C(=O)N1CCOCC1
2. CC(C)CNC(=O)[C@@H]1c2ccccc2C(=O)N(Cc2cc(C(F)(F)F)cc(C(F)(F)F)c2)[C@H]1c1ccc(CO)cc1
3. C=CCN1C(=O)[C@]2(O[C@H](CCO)[C@@H]([Si](C)(C)c3ccc(OC)cc3)[C@@H]2C)c2cc(NC(=O)[C@H](C)O)ccc21

Result:
[2.58, -0.128, 0.737]
